Target: prostaglandin E2-induced contractions of segments of guinea pig ileum (Cavia porcellus, UniProt A0A286XHJ6)
Construct: Segments of ileum about 2 cm long were then cut and mounted in a 10-mL tissue bath; from tissue; host or cells: ileum segments of male albino guinea pigs
Sequence (A0A286XHJ6 1-405): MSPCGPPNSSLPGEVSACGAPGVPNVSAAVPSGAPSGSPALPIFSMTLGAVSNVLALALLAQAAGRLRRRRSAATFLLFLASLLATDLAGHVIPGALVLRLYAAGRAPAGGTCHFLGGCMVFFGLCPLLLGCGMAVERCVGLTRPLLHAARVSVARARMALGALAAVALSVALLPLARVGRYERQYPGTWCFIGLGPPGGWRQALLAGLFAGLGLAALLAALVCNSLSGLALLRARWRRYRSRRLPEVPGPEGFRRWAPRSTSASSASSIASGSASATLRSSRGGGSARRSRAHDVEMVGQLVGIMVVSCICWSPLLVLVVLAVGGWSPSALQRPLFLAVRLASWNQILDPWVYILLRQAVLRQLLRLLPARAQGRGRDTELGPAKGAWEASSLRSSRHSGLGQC
Assay: Prostaglandin (PGE) Antagonism Assay, inhibition of prostaglandin E2-induced contractions of guinea pig ileum segments
Design: species or system guinea pig (male albino)
Conditions: 37° C., Schild plot, read-out: PGE ANTAGONISM IN GUINEA PIG ILEUM (pA2) (converted)
Where a name gives a salt, the structure may show the parent alone.
Property Label: Kb (µM)

Compound | Recorded Number
CCCCC(C)(O)C/C=C/C(=O)N1Cc2ccccc2Oc2ccc(Cl)cc21 (stereo not shown) | 0.166

P: O=C(CCC(=O)N1Cc2ccccc2Oc2ccc(Cl)cc21)CCc1ccncc1 [Example 17, monohydrochloride]
Q: CCCCCC(O)/C=C/C(=O)N1Cc2ccccc2Oc2ccc(Cl)cc21 (stereo not shown)
R: CCCCCC(C)(O)/C=C/C(=O)N1Cc2ccccc2Oc2ccc(Cl)cc21 (stereo not shown)
(Q) Write the entries in order, lowest recorded Kb first. Record the ranking as a list of labels in the requested order.
(A) P, Q, R
(P: 0.102 µM, Q: 0.214 µM, R: 0.617 µM)
